System: 941728-121-R-J1-PDC complex spheroid viability;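 also: spheroids exposed to compounds for 7 days before readout; 100% = DMSO vehicle control viability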
RUN DESCRIPTION: Anticancer human tumor 941728-121-R-J1-PDC patient-derived lung adenocarcinoma cell line growth inhibition [RAS]
CONDITION CONTEXT: second compound 0.316 µM; first compound 0.00316 µM; stronger effect = lower value
The following compounds are shown together with reported viability, T/C values.
READOUT TYPE: viability, T/C (%)

compound="C=CC(=O)N1CCN(c2nc(OCC3CCCN3C)nc3c(F)c(-c4nc(N)cc(C)c4C(F)(F)F)c(Cl)cc23)C(C)C1 (stereo not given) + C#Cc1c(F)ccc2cc(O)cc(-c3ncc4c(N5CC6CCC(C5)N6)nc(OCC56CCCN5CC(F)C6)nc4c3F)c12" value=22.1
compound="CCN1CCN(Cc2ccc(Nc3ncc(F)c(-c4cc(F)c5nc(C)n(C(C)C)c5c4)n3)nc2)CC1 + C#Cc1c(F)ccc2cc(O)cc(-c3ncc4c(N5CC6CCC(C5)N6)nc(OCC56CCCN5CC(F)C6)nc4c3F)c12" value=55.6
compound="Nc1ccn(C2OC(CO)C(O)C2(F)F)c(=O)n1 (stereo not given) + C=CC(=O)N1CCN(c2nc(OCC3CCCN3C)nc3c(F)c(-c4nc(N)cc(C)c4C(F)(F)F)c(Cl)cc23)C(C)C1" value=16.4
compound="CC(C)n1nc(-c2ccc3oc(N)nc3c2)c2c(N)ncnc21 + C=CC(=O)N1CCN(c2nc(OCC3CCCN3C)nc3c(F)c(-c4nc(N)cc(C)c4C(F)(F)F)c(Cl)cc23)C(C)C1" value=17.8
compound="O=C(c1ccc(F)c(F)c1Nc1ccc(I)cc1F)N1CC(O)([C@@H]2CCCCN2)C1 + C=CC(=O)N1CCN(c2nc(OCC3CCCN3C)nc3c(F)c(-c4nc(N)cc(C)c4C(F)(F)F)c(Cl)cc23)C(C)C1" value=15
